target: Bifunctional dihydrofolate reductase-thymidylate synthase (Plasmodium falciparum K1, UniProt P13922, S108N); assay: Inhibition of the S108N mutant of dihydrofolate reductase (DHFR)
Sequence (P13922 whole entry, looked up, stated change not applied): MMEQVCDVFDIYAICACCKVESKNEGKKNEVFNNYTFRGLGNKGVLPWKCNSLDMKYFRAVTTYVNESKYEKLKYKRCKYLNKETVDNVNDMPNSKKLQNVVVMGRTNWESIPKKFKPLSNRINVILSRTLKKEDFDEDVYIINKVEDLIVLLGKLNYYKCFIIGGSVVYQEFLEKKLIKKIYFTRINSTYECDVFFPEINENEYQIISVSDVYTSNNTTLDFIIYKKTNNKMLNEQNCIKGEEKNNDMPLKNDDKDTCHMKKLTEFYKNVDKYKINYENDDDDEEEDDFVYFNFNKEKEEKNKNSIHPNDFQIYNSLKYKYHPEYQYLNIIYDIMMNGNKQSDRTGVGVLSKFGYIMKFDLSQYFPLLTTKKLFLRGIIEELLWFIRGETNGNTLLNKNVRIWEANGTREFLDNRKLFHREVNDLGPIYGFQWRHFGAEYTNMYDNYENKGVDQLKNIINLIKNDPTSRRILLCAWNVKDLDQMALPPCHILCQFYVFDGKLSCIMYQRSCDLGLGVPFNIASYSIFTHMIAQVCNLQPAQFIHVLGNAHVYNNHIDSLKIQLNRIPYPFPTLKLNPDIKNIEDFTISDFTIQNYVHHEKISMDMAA
Provide the recorded pKi for the entries that follow.
One number for each entry, as −log10 of the molar value.

Reference set, count: 2
CCc1nc(N)nc(N)c1-c1ccc(-c2ccccc2)cc1 | 6.38
COC(=O)CCCc1nc(N)nc(N)c1-c1ccc(Cl)cc1 | 7.77

Batch: pKi for all items listed.
1. CCc1nc(N)nc(N)c1-c1ccc(Br)cc1
2. Nc1nc(N)c(-c2cccc(Cl)c2)c(CCOCCCOc2ccccc2)n1
3. COc1cc(COc2cc(Cc3cnc(N)nc3N)ccc2OCc2ccccc2)cc(OC)c1OC

# output
1: 7.50; 2: 8.74; 3: 6.75

Batch: pKi for all items listed.
1. CCc1nc(N)nc(N)c1-c1ccc(Cl)c(Cl)c1
2. Nc1ncc(-c2ccccc2)c(N)n1
3. Nc1ncc(-c2ccc(Cl)cc2)c(N)n1

# output
[8.05, 7.09, 6.43]

Batch: pKi for all items listed.
1. CCc1nc(N)nc(N)c1-c1ccccc1
2. Nc1ncc(-c2cccc(Cl)c2)c(N)n1
3. CCc1nc(N)nc(N)c1-c1ccc(OC)cc1
4. Nc1nc(N)c(-c2cccc(Cl)c2)c(CCCc2ccccc2)n1
5. Cc1nc(N)nc(N)c1-c1ccc(Cl)cc1

# output
8.35
7.58
7.41
8.52
6.98
